Target: GST tagged LXRalpha LBD (ligand binding domain) (Homo sapiens, UniProt Q13133)
Construct: purchased Invitrogen pv4655
Experiment: LanthaScreen TR-FRET Liver X Receptor Coactivator Assay, LXR alpha-LBD (co-activator recruitment; IP and % Emax relative to T0901317)
Type: biochemical
Settings: Inflection Point of co-activator recruitment, LXR alpha-LBD, TR-FRET
pEC50: −log10 of the molar value.
readout_label: pEC50

Worked examples, 3 molecules total:
[
  {
    "molecule": "CN(C)C(=O)c1ccc(N2CCC([C@H]3C[C@H]3CNC(=O)[C@](O)(c3ccccc3)C(F)(F)F)CC2)nc1Cl [Example 15-9]",
    "pEC50": 5.37
  },
  {
    "molecule": "CN(C)C(=O)c1ccc(N2CCC(CCCN(C)C(=O)[C@](O)(c3cccc(O)c3)C(F)(F)F)CC2)nc1Cl [Example 1-58]",
    "pEC50": 5.56
  },
  {
    "molecule": "CNC(=O)c1ccc(N2CCC3(CC2)CC3CCN(C)C(=O)[C@](O)(c2cccc(OC)c2)C(F)(F)F)nc1Cl (stereo in doubt) [Example 7-20]",
    "pEC50": 5.93
  }
]

[I] CC(C)[C@@](O)(C(=O)N(C)CCCC1CCN(c2ccc(C(=O)N(C)C)c(Cl)n2)CC1)C(F)(F)F [Example 1-3]
[II] CN(C)C(=O)c1ccc(N2CCC(C)(CCCN(C)C(=O)[C@](O)(c3ccccc3)C(F)(F)F)CC2)nc1Cl [Example 9-2]
Smaller pEC50 value? Options are I and II Your choice should be expressed through its label.
I

[P] COc1cccc([C@@](O)(C(=O)N(C)CCC2CC3(CCN(c4ccc(C(=O)N(C)C)c(Cl)n4)CC3)C2)C(F)(F)F)c1 [Example 13-1]
[Q] CN(C)C(=O)c1ccc(N2CCC(CCCN(C)C(=O)[C@](O)(c3ccccc3)C(F)(F)F)CC2)nc1Cl [Example 1-1]
Of P versus Q , which is the one with smaller reported pEC50? # reply format: chosen label
Q
(Q: 6.12, P: 6.33)

[A] COc1cccc([C@@](O)(C(=O)N(C)CC2CC(C3CCN(c4ccc(C(=O)N(C)C)c(Cl)n4)CC3)C2)C(F)(F)F)c1 (stereo partly shown) [Example 16-1]
[B] COc1cccc([C@@](O)(C(=O)N(C)CC[C@H]2CC23CCN(c2ccc(C(=O)N(C)C)c(Cl)n2)CC3)C(F)(F)F)c1 [Example 7-15]
Kindly compare A with B and tell me which has the lower pEC50 figure. Bench note: the answer is the label of the chosen record.
A
(A: 5.85, B: 6.17)

[A] CN(C)C(=O)c1ccc(N2CCC(CCCN(C)C(=O)[C@]3(c4ccccc4F)CCCO3)CC2)nc1Cl [Example 1-6]
[B] CN(C)C(=O)c1ccc(N2CCC(CCCN(C)C(=O)C(O)(c3ccccc3)C(F)(F)F)CC2)cc1Cl (single isomer, unassigned) [Example 4-6]
[C] COc1cccc([C@@](O)(C(=O)N(C)CCCC2CCN(c3ccc(C(=O)N(C)Cc4noc(C5CC5)n4)c(Cl)n3)CC2)C(F)(F)F)c1 [Example 2-12]
List these items ordered by pEC50, big to small. Output spec: a listing of the labels in the requested order.
C, B, A
(C: 7.02, B: 6.17, A: 5.84)

* * *

Biological target: GST tagged LXRbeta LBD (ligand binding domain) (Homo sapiens, UniProt P55055)
Experiment: LanthaScreen TR-FRET Liver X Receptor Coactivator Assay, LXR beta-LBD (co-activator recruitment; IP and % Emax relative to T0901317)
Details: Inflection Point of co-activator recruitment, LXR beta-LBD, TR-FRET
pEC50: −log10 of the molar value.
readout_label: pEC50

[
  {
    "molecule": "CN(C)C(=O)c1ccc(N2CCC(CC3CC(NC(=O)[C@](O)(c4ccccc4)C(F)(F)F)C3)CC2)cc1Cl (stereo partly drawn)",
    "measured_on": "GST tagged LXRbeta LBD (ligand binding domain) (Homo sapiens, UniProt P55055)",
    "pEC50": 6.57
  }
]

[P] CN(C)C(=O)c1ccc(N2CCC(CCCNC(=O)[C@](O)(c3cccc(OC4CC4)c3)C(F)(F)F)CC2)nc1Cl
[Q] CN(C)C(=O)c1ccc(N2CCC([C@@H]3C[C@H]3CN(C)C(=O)[C@](O)(c3ccccc3)C(F)(F)F)CC2)cc1Cl
Parameter metric = pEC50. Return the lower-valued option from P and Q . Kindly state the label of the option you pick.
P
(P: 6.46, Q: 6.90)

* * *

Target: GST tagged LXRalpha LBD (ligand binding domain) (Homo sapiens)
Sequence (Q13133 209-447 limits assumed): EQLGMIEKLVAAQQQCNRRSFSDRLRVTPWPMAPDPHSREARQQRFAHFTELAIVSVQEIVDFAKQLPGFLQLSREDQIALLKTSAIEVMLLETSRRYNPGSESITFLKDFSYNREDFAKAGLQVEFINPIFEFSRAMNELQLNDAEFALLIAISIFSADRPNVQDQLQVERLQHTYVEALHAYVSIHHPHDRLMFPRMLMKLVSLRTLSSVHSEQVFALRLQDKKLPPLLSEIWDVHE
Test: LanthaScreen TR-FRET Liver X Receptor Coactivator Assay, LXR alpha-LBD (co-activator recruitment; IP and % Emax relative to T0901317)
Conditions: Inflection Point of co-activator recruitment, LXR alpha-LBD, TR-FRET
readout_label: EC50 (µM)

Use these answered entries as a reference point.
[
  {
    "molecule": "CN(C)C(=O)c1ccc(N2CCC(CCCN(C)C(=O)C(O)(c3ccccc3)C(F)(F)F)CC2)cc1Cl (single isomer, unassigned) [Example 4-4]",
    "measured_on": "GST tagged LXRalpha LBD (ligand binding domain) (Homo sapiens)",
    "units_symbol": "µM",
    "EC50": 1.58
  },
  {
    "molecule": "COc1cccc([C@@](O)(C(=O)N(C)CC[C@H]2CC23CCN(c2ccc(C(=O)NC4CC4)c(Cl)n2)CC3)C(F)(F)F)c1",
    "measured_on": "GST tagged LXRalpha LBD (ligand binding domain) (Homo sapiens)",
    "units_symbol": "µM",
    "EC50": 1.79
  }
]

[I] CN(C)C(=O)c1ccc(N2CCC3(CC2)C[C@@H]3CCN(C)C(=O)[C@](O)(c2cccc(OC3CC3)c2)C(F)(F)F)cc1Cl
[II] COc1ccccc1[C@@]1(C(=O)N(C)CCCC2CCN(c3ccc(C(=O)N(C)C)c(Cl)n3)CC2)CCCO1
[III] CN(C)C(=O)c1ccc(N2CCC(CCCN(C)C(=O)[C@](O)(c3ccccc3)C(F)(F)F)CC2)nc1C#N
[IV] CN(C)C(=O)c1ccc(N2CCC(CCCNC(=O)[C@](O)(c3cccc(O)c3)C(F)(F)F)CC2)nc1Cl
Number of molecules to sort: 4. Sort criterion: EC50, ascending. A complete answer lists every label in the requested sequence.
I, II, III, IV
(I: 0.601 µM, II: 1.45 µM, III: 2.61 µM, IV: 10.3 µM)

* * *

Target: GST tagged LXRbeta LBD (ligand binding domain) (Homo sapiens, UniProt P55055)
Sequence (P55055 222-460 limits assumed): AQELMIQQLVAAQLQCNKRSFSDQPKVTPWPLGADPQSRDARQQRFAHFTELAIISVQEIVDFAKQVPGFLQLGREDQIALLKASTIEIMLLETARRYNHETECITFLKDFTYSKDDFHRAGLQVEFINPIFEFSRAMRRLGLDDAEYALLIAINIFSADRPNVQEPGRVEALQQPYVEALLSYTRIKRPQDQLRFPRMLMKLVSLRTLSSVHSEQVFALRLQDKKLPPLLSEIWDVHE
Test: LanthaScreen TR-FRET Liver X Receptor Coactivator Assay, LXR beta-LBD (co-activator recruitment; IP and % Emax relative to T0901317)
Conditions: Inflection Point of co-activator recruitment, LXR beta-LBD, TR-FRET
pEC50: −log10 of the molar value.
readout_label: pEC50

Past entries and their recorded results:
[
  {
    "molecule": "CC(C)C(O)(C(=O)N(C)CCCC1CCN(c2ccc(C(=O)N(C)C)c(Cl)c2)CC1)C(F)(F)F (centres unmarked)",
    "measured_on": "GST tagged LXRbeta LBD (ligand binding domain) (Homo sapiens, UniProt P55055)",
    "pEC50": 6.33
  },
  {
    "molecule": "CCOc1cccc([C@@](O)(C(=O)NCCCC2CCN(c3ccc(C(=O)N(C)C)c(Cl)n3)CC2)C(F)(F)F)c1",
    "measured_on": "GST tagged LXRbeta LBD (ligand binding domain) (Homo sapiens, UniProt P55055)",
    "pEC50": 6.46
  },
  {
    "molecule": "COc1ccccc1[C@@]1(C(=O)N(C)CCCC2CCN(c3ccc(C(=O)N(C)C)c(Cl)n3)CC2)CCCO1",
    "measured_on": "GST tagged LXRbeta LBD (ligand binding domain) (Homo sapiens, UniProt P55055)",
    "pEC50": 7.22
  }
]

[a] COc1cccc([C@@](O)(C(=O)N(C)CCCC2CCN(c3ccc(C(=O)N4CCC4)c(Cl)n3)CC2)C(F)(F)F)c1
[b] CN(C)C(=O)c1ccc(N2CCC3(CC2)C[C@H]3CCN(C)C(=O)[C@](O)(c2ccccc2)C(F)(F)F)cc1Cl
[c] COc1cccc([C@@](O)(C(=O)N(C)CCCC2CCN(c3ccc(C(=O)N(C)C)c(Cl)n3)CC2)C(F)(F)F)c1
[d] COc1cccc([C@@](O)(C(=O)N(C)CC[C@@H]2CC23CCN(c2ccc(C(=O)NC(C)C)c(Cl)c2)CC3)C(F)(F)F)c1
Reorder: pEC50, max to min. When ranking, write the labels in the order the request describes.
c, a, b, d

[a] COc1cccc([C@@](O)(C(=O)NC2CC(CC3CCN(c4ccc(C(=O)N(C)C)c(Cl)c4)CC3)C2)C(F)(F)F)c1 (some centres unmarked)
[b] CN(C)C(=O)c1ccc(N2CCC3(CC2)CC3CCN(C)C(=O)[C@](O)(c2ccccc2)C(F)(F)F)cc1Cl (some centres unmarked)
[c] CN(C)C(=O)c1ccc(N2CCC(CCCN(C)C(=O)[C@]3(c4ccccc4)CCCO3)CC2)nc1Cl
Please put the entries in order of rising pEC50. The reply should contain the labels ordered as requested.
a, c, b

[P] CNC(=O)c1ccc(N2CCC(CC3CC(NC(=O)[C@](O)(c4ccccc4)C(F)(F)F)C3)CC2)cc1Cl (some centres unmarked)
[Q] COc1cccc([C@@](O)(C(=O)N[C@H](C)CCC2CCN(c3ccc(C(=O)N(C)C)c(Cl)n3)CC2)C(F)(F)F)c1
[R] CN(C)C(=O)c1ccc(N2CCC(CCCNC(=O)C3(c4ccccc4)CCC3)CC2)nc1Cl
Task field, ranking: reported pEC50, descending order. Show the ranking through the labels, in the order asked for.
Q, R, P
(Q: 7.01, R: 6.63, P: 6.29)
